These measurements were taken from the supplement of paper PMC9170038.

Tested on: K4 kissing-loop RNA reporter
Test Protocol: apparent KD of K4 kissing-loop reporter; higher = weaker reporter binding
Experimental Context: Eterna round: R107; input ligand: FMN 200 uM
Kindly supply the reported apparent KD of K4 kissing-loop reporter values for the records listed here.
Hi! Could you send only the number? It should be in nM, unit omitted.

Ask | Entry UGUCAUGGAAACAUGAACGUUGAUGUUCGACGAGGACCGGUACGGCCGCCACUCGAGUAAUAGUCAGUGAUGUUGACUAGUCUAA [KL-SSTryp-A form1] : reported apparent KD of K4 kissing-loop reporter = ?
Reply | 76.7

Ask | Entry GGGAGUAGUGCGGCCGCCACUGAGAAAGAAGAAGAUUGUAGUGAUGUUAUGGAGGAAAGGAAGAACAGGACCGGGCAUUAGAUUU [SSTRyptB.I] : reported apparent KD of K4 kissing-loop reporter = ?
Reply | 1080

Ask | Entry UAUAGAGUGACGGCCGCCACUAUUGUGAUUUAAUUGUUAGAGUGAUGUUUUGAUGUUUGAUUUUGUAGGACCGGGUUAUAUGUUA [wwwzmullin] : reported apparent KD of K4 kissing-loop reporter = ?
Reply | 1090

Ask | Entry AGUGAUGUUGAGUUAUCUUAGUGAAGUGAUCGAGGACCGGUACGGCCGCCACUCGAGUGAUGAGUGAGUGAUGUUUGUUUAGGGA [llkmullin] : reported apparent KD of K4 kissing-loop reporter = ?
Reply | 695

----------
Test system: K4 kissing-loop RNA reporter;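 further: bound reporter read as fluorescence of individual clusters on recovered sequencing chips by microscopy, with normalized cluster intensities fitted with a binding model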
Test Protocol: apparent KD of K4 kissing-loop reporter; higher = weaker reporter binding
Experimental Context: Eterna round: R107; input ligand: none
Given measured apparent KD of K4 kissing-loop reporter, output 1 (yes) if it is greater than or equal to 500 nM and 0 (no) if not.

Ask | # bool: apparent KD of K4 kissing-loop reporter of UUAGAGAUCUCAGGAUAUCAGUGAUGUUGGUGUGAAGAUCUGAGAUAGAAUUCUAUCUCAGAUCAAUGAGAAGGGAGAUCUCAUU [AK3.1 Exc FMN B] >= 500 nM
Reply | 0 (no)

Ask | # bool: apparent KD of K4 kissing-loop reporter of ACCUGUAGCAGAAGGAGCGACAGUUAUUCUGAUAGAACUCUGAGUGAUGUUCAGAACAACUGUCAGGUAGGUCGCUGAUACAGGU [Arg B Ex t8a] >= 500 nM
Reply | 1 (yes)

Ask | # bool: apparent KD of K4 kissing-loop reporter of CGCGCUGGUUGAGAGGUUGGCGCGAAUGAUACCAGUAUAUAAGAAUACCCUUGGCAGCAUAAGAAAGAUAUAGUGAUGUUGUAUA [SSTheophA.H] >= 500 nM
Reply | 0 (no)

Ask | # bool: apparent KD of K4 kissing-loop reporter of AUUUAUUACAGAAGGAGCGUGUAUUUAUAAUCAUUUAUCUUAGCGAGUGAUGUUCGCUUUACACAGGUAGGUCGCUGUUUAUUUA [JR_Nu_ExcArginiB_Sub027] >= 500 nM
Reply | 0 (no)

Ask | # bool: apparent KD of K4 kissing-loop reporter of GGCAGUGAUGUUGCCAGUGGCAGAUUAGAAGGAGCGUGGUGAGACACAGGUAGGUCGCUAAUUGAAAUUGCUGUCACUAAAAUGC [#6] >= 500 nM
Reply | 0 (no)

Ask | # bool: apparent KD of K4 kissing-loop reporter of UGUCAUUGGUCGGCCGCCACUAGAAGGUCAAAGACCAAAGAGUGAUGUUCUUAGACGAAAGUCACUAGGACCGGGACCGAUGACU [TrypBS 7 #SwitchBubble #K4Middle] >= 500 nM
Reply | 1 (yes)

Ask | # bool: apparent KD of K4 kissing-loop reporter of UGGACUAGUGUGAGUGAUGUUCACUUCGAUACCAGCAGAGCGAUCUGCCCUUGGCAGCGAGUUAACUGCCGAAAGGCAAGGUCCA [Theo B SS t9a] >= 500 nM
Reply | 0 (no)

Ask | # bool: apparent KD of K4 kissing-loop reporter of CCGGAGGAAGUCGCUUUUCCUGUGGCAUAGAAGGAUAUCCAAUUAAGGAGAAGGUCUAUCUGCCUUAGUGAUGUUAGGAAGUAGA [theeternabot_sameState_KL_FMN_A_23] >= 500 nM
Reply | 0 (no)

Ask | # bool: apparent KD of K4 kissing-loop reporter of GAAAGAAAGAAUGAUACCAGACACCCGAGUGAUGUUCGGAGCAGAGUGAUGUUCUUAUAAGUCCCUUGGCAGCAUAAAAGAAAAG [whbob_SS_Theo_B_sa82] >= 500 nM
Reply | 0 (no)

Ask | # bool: apparent KD of K4 kissing-loop reporter of UGGGUGUAGUGAUGUUAUAUAGAGAGUGAUACCAGCGUAGAGAGAUGCCCUUGGCAGCAUAGAAGAGUAUCAUUGGAGGAGGAGG [ExTheophyl.Az] >= 500 nM
Reply | 1 (yes)

Ask | # bool: apparent KD of K4 kissing-loop reporter of UGGAUAUAGUGAUGUUAUAUAGAGAGUGAUACCAGUUUAGAGAAGAACCCUUGGCAGCAUAGAGAAGUAUCAUUAGAGAAGAAUG [ExTheophyl.Ap] >= 500 nM
Reply | 0 (no)

Ask | # bool: apparent KD of K4 kissing-loop reporter of AGGCACGAGCAAGGAUAUUGAGUAGAGUGAUGUUCUGCCUAAGUUGGCUCGUAAGAGCCUUCUUAGCGAGAAGGUGCUCGUGCCU [#2 Same State - FMN A Attempt #27 (HarryS)] >= 500 nM
Reply | 1 (yes)

----------
Tested on: MS2 coat protein
Test Protocol: apparent KD of MS2 coat protein, switch ON state; designed switch direction (-1 OFF switch, 1 ON switch): 1; higher = weaker reporter binding
Experimental Context: FMN input: 0 or 200 uM; Eterna round: R93 (includes R88 designs)
Binning of apparent KD of MS2 coat protein into classes: group 1: < 20 nM; group 2: ≥ 20 nM and < 70 nM; group 3: ≥ 70 nM

Ask | Returns: class label. Input: AAAAAAAAAUCACAGGAUAUACGAAAAAAAACAUGAGGAUCACCCAUGUGAAAAAAAAAAAAAAAGUAGAAGGGUGAUCCAAAAAA
Reply | group 1

Ask | Returns: class label. Input: GAAGACAUAGUUCAGGAUAUAUGAAUAGUCACAUGAGGAUCACCCAUGUGCAUUUAUAUGCGCACAUAGAAGGGAGGUAGUUAUC [SameState2 Malc#24]
Reply | group 2

Ask | Returns: class label. Input: AACAAUCUAUCUGAGGAUAUGUGUCGAAAGACAUGAGGAUCACCCAUGUGAAAACAUGAAAAGAUACAGAAGGCAGAUAGAUUGA [SS2: 1155]
Reply | group 2

Ask | Returns: class label. Input: UACACGCGGGCGCAGGAUAUGUCGCUGGUGACAUGAGGAUCACCCAUGUAUACCAUUGCGGUUGAGCAGAAGGGUGAGACGCGUG [Matimare]
Reply | group 1

Ask | Returns: class label. Input: AUAUGAGCUAUGGAGGAUAUCCACAAUAAAACAUGAGGAUCACCCAUGUAAGAAAGAAAAGAAUGGGAGAAGGCCAUAGCUCAAU [SS 2 M45]
Reply | group 1

Ask | Returns: class label. Input: AACAAUCUAUCUGAGGAUAUGUGUCGAAAGACAUGAGGAUCACCCAUGUAAAAACAUGGGAAGAUACAGAAGGCAGAUAGAUUGA [SS2: 1161]
Reply | group 3

Ask | Returns: class label. Input: CGUGAACAUGAGGAUCACCCAUGUGAAAAACAUAGAGGAUAUGUCACGUGAGUGUAAAAGACAGAAGGCUAUCGUG [Mod 3 of Round 1 starryjess' Mod pf Nando]
Reply | group 2

Ask | Returns: class label. Input: AGAAAUAAAAGAGAGGAUAUCCAAAAGAAAACAUGAGGAUCACCCAUGUGAAAGAAAAGAAAAUGGGAGAAGGCUCAAAAUAAGA [Topaz 18]
Reply | group 2

Ask | Returns: class label. Input: AAACCACAUGAGGAUCACCCAUGUAAAAAUAUGGGAGGAUAUACUAGAAGAAACAAAAUAGUAGAAGGCCUAAAAA [75%, Ex sub1, 28]
Reply | group 2

Ask | Returns: class label. Input: AGAAAACAUGAGGAUCACCCAUGUAGAAAUAUGGGAGGAUAUACGAGGACGAAAGUCAAAGUAGAAGGCCUAAAGA [Mat - Same State 1 - Meechl mod - D125]
Reply | group 2

Ask | Returns: class label. Input: AAUACACAUGGUCAGGAUAUCGCAGCUAGGACAUGAGGAUCACCCAUGUAAUAAGUAAAAGUAAAUGAGAAGGGACAGGGUGACC [JR_SS002_Sub405]
Reply | group 3

Ask | Returns: class label. Input: AAAAAACAUGAGGAUCACCCAUGUGCAAAAUUCGCAGGAUAUUCCUCAAUUAAAUGAAAGGAAGAAGGGUGACAAA [Nob's Hobby 30 - Jieux - Same State 1]
Reply | group 3

Ask | Returns: class label. Input: GAAAUACAUGAGGAUCACCCAUGUUAGGUGGGUCAAGGAUAUUAAGGUAAAUAAAAACCUUGAGAAGGUGAAUAAA [JR_SS001_Sub203]
Reply | group 3

Ask | Returns: class label. Input: AAAAAACAUGAGGAUCACCCAUGUGAAAAUAUGGGAGGAUAUCAUGGAAAAAAAAAAACAUGAGAAGGCCCAGAAA [SS! 1 MT 11]
Reply | group 1

Ask | Returns: class label. Input: AAAUAAAGGAUUAAGGAUAUAUCACAUGAAACAUGAGGAUCACCCAUGUAAUAAUAUAAAGGGUGAUAGAAGGUAGUUUAUAAAUA [High Roller2]
Reply | group 3

Ask | Returns: class label. Input: AGAAAUAAAGCUGAGGAUAUGGGAAAAUUCACAUGAGGAUCACCCAUGUAAAAGAAAAUAAAAAACCAGAAGGCAGCAAAUAAGA [Designing denovo 6]
Reply | group 2

Ask | Returns: class label. Input: AAUAUAUUAAGUGAGGAUAUCAAGAAAAAAACAUGAGGAUCACCCAUGUGGGAAACAUGGUAGGGUGAGAAGGUACUUAAUAUAU [Samwise Clockwise 21 - Jieux - Same State 2]
Reply | group 3

Ask | Returns: class label. Input: AACAAUCUAUCUGAGGAUAUAUGUCAAAAGACAUGAGGAUCACCCAUGUAAAAACAUGAAAAAUCAUAGAAGGCAGAUAGAUUGA [SS2: 1135]
Reply | group 2
